Listed here are compounds together with their documented Eff. (%).
assayedTarget: human mGlu4 receptor (Homo sapiens (Human), UniProt Q14833)
Sequence (Q14833 33-912): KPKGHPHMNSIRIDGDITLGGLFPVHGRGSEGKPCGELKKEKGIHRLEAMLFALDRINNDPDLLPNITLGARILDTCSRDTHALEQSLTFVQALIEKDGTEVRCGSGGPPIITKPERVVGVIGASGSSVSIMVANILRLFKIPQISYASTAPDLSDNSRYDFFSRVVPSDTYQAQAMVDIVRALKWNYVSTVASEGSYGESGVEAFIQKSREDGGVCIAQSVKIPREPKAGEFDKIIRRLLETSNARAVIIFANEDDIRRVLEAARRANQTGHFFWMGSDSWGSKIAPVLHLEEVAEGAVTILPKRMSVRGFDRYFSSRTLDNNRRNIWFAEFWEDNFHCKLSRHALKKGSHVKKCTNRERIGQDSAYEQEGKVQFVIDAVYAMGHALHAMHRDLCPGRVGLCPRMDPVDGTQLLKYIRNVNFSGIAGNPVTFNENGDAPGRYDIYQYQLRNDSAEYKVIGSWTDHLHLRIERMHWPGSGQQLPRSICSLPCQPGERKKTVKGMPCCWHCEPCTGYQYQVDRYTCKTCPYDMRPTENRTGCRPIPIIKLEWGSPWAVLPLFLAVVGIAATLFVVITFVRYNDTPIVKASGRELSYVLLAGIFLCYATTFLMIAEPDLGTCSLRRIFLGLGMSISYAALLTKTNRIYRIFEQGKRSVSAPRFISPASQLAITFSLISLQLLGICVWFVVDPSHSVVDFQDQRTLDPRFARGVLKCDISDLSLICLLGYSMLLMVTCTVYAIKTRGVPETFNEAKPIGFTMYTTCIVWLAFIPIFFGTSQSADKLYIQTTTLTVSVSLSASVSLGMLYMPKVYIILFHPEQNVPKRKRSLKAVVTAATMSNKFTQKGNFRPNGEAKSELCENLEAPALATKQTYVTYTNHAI
methodDescription: Ca2+ mobilization in vitro assay on recombinant human mGlu4 expressed in HEK293 cells (mGlu4 PAM)
Type: cell-based
statedConditions: maximal response in % of the maximal stimulatory effect obtained with saturating concentrations of L-AP4
quantityName: Eff. (%)

| structureAsSmiles | experimentalResult |
| --- | --- |
| CC(C)n1c(=O)n(-c2c(F)cc(C#Cc3ccccc3)cc2F)c(=O)c2nn(C)cc21 | 89 |
| Cc1cccc2c(=O)n(-c3ccc(C#Cc4ccccc4)cc3Cl)c(=O)n(C)c12 | 99 |
| CC(C)n1c(=O)n(-c2ncc(C#Cc3ccccc3)cc2Cl)c(=O)c2ccccc21 | 92 |
| Cn1c(=O)n(-c2ccc(C#Cc3ccccc3)cc2Cl)c(=O)c2cccnc21 | 101 |
| Cc1ccnc2c(=O)n(-c3c(F)cc(C#Cc4ccccc4)cc3F)c(=O)n(C)c12 | 108 |
| Cc1ccc2c(=O)n(-c3ccc(C#Cc4ccccc4)cc3Cl)c(=O)n(C)c2c1 | 108 |
| CC(C)n1c(=O)n(-c2ccc(C#Cc3ccccc3)cc2Cl)c(=O)c2nccnc21 | 89 |
| CC(C)n1c(=O)n(-c2c(F)cc(C#Cc3ccccc3)cc2F)c(=O)c2nsnc21 | 104 |

Data credit: patent US9676732B2
